# MEASUREMENT_DESCRIPTION: chemical genetic growth profiling, strain panel (AID 1159580);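 further: tested at 20 µM; growth read once vehicle control cultures reached saturation at 30 °C; 1 = growth at the plate median or of vehicle wells; lower values mean less growth of the strain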
# EXPERIMENTAL_SETUP: S. cerevisiae deletion strains, growth OD, locus YKL068W, hits give low values
About 2,000 (36%) of roughly 5,500 compounds were called active. About 18% were inconclusive and are not listed. This is one part of the list.
ASSAY_READOUT: normalized growth
Output: the number by itself.

Some solved cases for reference:
CC(=O)CC(c1ccccc1)c1c(O)c2ccccc2oc1=O (stereo unspecified)	1
O=c1c2ccccc2oc2ccc(O)cc12	1.01
O=c1oc2ccccc2c(O)c1Cc1c(O)c2ccccc2oc1=O	0.959
Nc1nc(N)c2nc(-c3ccccc3)c(N)nc2n1	1

Lab note: next compound to report on.
Input CCCCCCCCCCCCCCCC[n+]1ccccc1 , output reported normalized growth.
0.0564

====

# MEASUREMENT_DESCRIPTION: chemical genetic growth profiling, strain panel (AID 1159580);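 further: tested at 20 µM; growth read once vehicle control cultures reached saturation at 30 °C; 1 = growth at the plate median or of vehicle wells; lower values mean less growth of the strain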
# EXPERIMENTAL_SETUP: S. cerevisiae deletion strains, growth OD, locus YGL167C, strain pmr1
The campaign covered roughly 5,500 compounds. About 2,000 (36%) were called active. Roughly 18% stayed inconclusive and do not appear here. Cut-off read from the data, not from the text of the source: active = normalized growth mostly below about 0.91 (no sharp cut-off); inconclusive = no clear call, values can overlap the other calls; inactive = mostly above about 0.92. This is one part of the list.
Entry note: the call must match one of active, inactive

The examples below pair each entry with its known result.
CCCN1C[C@H](CSC)C[C@@H]2c3cccc4[nH]cc(c34)C[C@H]21	inactive
CC(=O)OCC(=O)[C@@]1(O)CCC2C3CC[C@@H]4C[C@H](O)CC[C@]4(C)C3C(=O)C[C@@]21C (stereo not given in full)	inactive
CC(=O)O[C@H]1C[C@@H](O)C(C)(C)C2C[C@@H](OC(C)=O)[C@]3(C)C(CC[C@@]4(C)[C@H](c5ccoc5)OC(=O)C5OC543)[C@]21C (stereo not given in full)	inactive

What did the test return for CC(C(=O)O)[C@H]1CCC2C3CC=C4C[C@@H](O)CC[C@]4(C)C3CC[C@@]21C (stereo not given in full) ?
inactive

Which outcome did this test record for the molecule CC(C)(Oc1ccc(Cl)cc1)C(=O)O ?
inactive

Please let me know the test result on file for [N-]=[N+]=CC(=O)OCC(N)C(=O)O (stereo not given) .
inactive

====

# MEASUREMENT_DESCRIPTION: chemical genetic growth profiling, strain panel (AID 1159580);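 further: tested at 20 µM; growth read once vehicle control cultures reached saturation at 30 °C; 1 = growth at the plate median or of vehicle wells; lower values mean less growth of the strain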
# EXPERIMENTAL_SETUP: S. cerevisiae deletion strains, growth OD, locus YDR388W
Out of some 5,500 compounds screened, about 2,000 (36%) were called active. Inconclusive results (about 18%) are left out. Cut-off read from the data, not from the text of the source: active = normalized growth mostly below about 0.91 (no sharp cut-off); inconclusive = no clear call, values can overlap the other calls; inactive = mostly above about 0.92. The list shows a part of the results.
Please answer using one outcome listed in True = active, False = inactive

O=C(/C=C/c1ccccc1)c1ccc(O)cc1	True
CC(C)(Oc1ccc(Cl)cc1)C(=O)O	False
C[C@@H]1CC[C@@]2(OC1)OC1C(O)C3C4CC[C@H]5C[C@H](O[C@@H]6O[C@H](CO)[C@H](O[C@@H]7O[C@H](CO)[C@@H](O)[C@H](O[C@@H]8OC[C@@H](O)[C@H](O)[C@H]8O)[C@H]7O[C@@H]7O[C@H](CO)[C@H](O)[C@H](O[C@@H]8O[C@H](CO)[C@@H](O)[C@H](O)[C@H]8O)[C@H]7O)[C@H](O)[C@H]6O)[C@H](O)C[C@]5(C)C4CC[C@]3(C)C1[C@@H]2C (stereo not given in full)	True

Field: outcome | Entry: C=CCCCCCCCCCCCC(O)CC(O)CO (stereo not given) (tested in a mixture with another compound)
True

Name the outcome recorded for CC(=O)O[C@H]1C[C@H](O[C@H]2[C@@H](O)C[C@H](O[C@H]3[C@@H](O)C[C@H](O[C@H]4CC[C@@]5(C)C(CCC6C5C[C@@H](O)[C@]5(C)[C@@H](C7=CC(=O)OC7)CC[C@]65O)C4)O[C@@H]3C)O[C@@H]2C)O[C@H](C)[C@H]1O[C@@H]1O[C@H](CO)[C@@H](O)[C@H](O)[C@H]1O (stereo not given in full) in the assay.
False

Source listed as PubChem BioAssay AID1159580.
